Data provenance is PubChem BioAssay.

biological target: Pantothenate synthetase (Mycobacterium tuberculosis (strain ATCC 25618 / H37Rv)) (UniProt P9WIL5); experiment: Coupled enzyme confirmation of inhibitors against recombinant Mtb PanC (AID 375); conditions: coupled enzyme assay; at 10 µM, hits give high values;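 further: 0% = full reaction with vehicle and 100% = no enzyme background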
Sequence (P9WIL5 whole entry, looked up): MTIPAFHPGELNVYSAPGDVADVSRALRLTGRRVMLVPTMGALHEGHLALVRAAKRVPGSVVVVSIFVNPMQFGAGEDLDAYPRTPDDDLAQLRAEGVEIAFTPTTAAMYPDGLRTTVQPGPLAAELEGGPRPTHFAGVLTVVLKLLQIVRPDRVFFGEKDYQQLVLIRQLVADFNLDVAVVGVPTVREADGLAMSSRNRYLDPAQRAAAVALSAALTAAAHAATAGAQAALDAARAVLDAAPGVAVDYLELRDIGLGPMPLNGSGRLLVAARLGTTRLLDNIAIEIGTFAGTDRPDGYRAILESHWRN
Calls of active or inactive are those of the source. How the calls were made is not given here.
# inhibition listing for each entry below

{"compound": "O=C(CSc1nnc(Cn2c(=O)sc3ccccc32)n1-c1ccccc1)NCC1CCCO1 (stereo unspecified)", "inhibition": "0% (inactive)"}
{"compound": "CCCOC(=O)C1C2C=CC3(CN(c4cccc(Cl)c4)C(=O)C13)O2 (stereo unspecified)", "inhibition": "0% (inactive)"}
{"compound": "O=C(Nc1ccccc1N1CCN(C(=O)c2ccc(Cl)cc2)CC1)c1cc2ccccc2o1", "inhibition": "3% (inactive)"}
{"compound": "CCc1nnc(NC(=O)CN2CCN(c3ccccc3OC)CC2)s1", "inhibition": "4% (inactive)"}
{"compound": "CCc1ccc(C(=O)NC2CCCCC2)s1", "inhibition": "0% (inactive)"}
{"compound": "N=C(N)c1c(O)n(C2CCCCC2)c(=O)n(C2CCCCC2)c1=O", "inhibition": "0% (inactive)"}
{"compound": "Cc1cccc(NC(=O)CCCCCN2C(=O)c3ccccc3C2=O)n1", "inhibition": "0% (inactive)"}
{"compound": "COc1ccccc1-c1cn[nH]c(=S)n1", "inhibition": "11% (inactive)"}
{"compound": "CCCCN(C)CCCNC(=O)CC1Oc2ccccc2NC1=O (stereo unspecified)", "inhibition": "6% (inactive)"}
{"compound": "CC(C)C(=O)N1CCN(c2nc(-c3ccccc3)c3c(c2C#N)CCCC3)CC1", "inhibition": "0% (inactive)"}
{"compound": "COc1ccc(C(=O)N2CCCc3ccccc32)cc1", "inhibition": "0% (inactive)"}
